ASSAYED_TARGET: Gastrin receptor (gastric glands) (Cavia porcellus)
Construct: The washed guinea pig gastric glands prepared as above were resuspended; from tissue; host or cells: guinea pig gastric mucosal glands (male Hartley)
Sequence (H0VZC5 1-426): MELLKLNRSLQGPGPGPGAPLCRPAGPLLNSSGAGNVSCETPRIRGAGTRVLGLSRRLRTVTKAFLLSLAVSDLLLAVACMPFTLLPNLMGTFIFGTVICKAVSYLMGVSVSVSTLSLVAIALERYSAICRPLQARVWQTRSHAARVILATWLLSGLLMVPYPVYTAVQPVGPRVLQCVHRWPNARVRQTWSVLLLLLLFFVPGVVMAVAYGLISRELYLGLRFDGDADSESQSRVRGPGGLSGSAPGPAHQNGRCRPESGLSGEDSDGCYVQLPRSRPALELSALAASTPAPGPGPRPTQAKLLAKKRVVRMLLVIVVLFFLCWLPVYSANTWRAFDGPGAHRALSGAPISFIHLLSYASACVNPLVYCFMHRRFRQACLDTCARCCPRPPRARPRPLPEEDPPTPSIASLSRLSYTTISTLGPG
EXPERIMENT_NOTES: Gastrin Receptor Binding in Guinea Pig Gastric Glands
Design: species or system guinea pig (male Hartley)
CONDITION_DETAILS: ^125 I-gastrin, 25° C., 30 minutes, read-out: IC50 ^125 I-Gastrin Gastric Glands
The reader will find reported IC50 values listed item by item below.
PROPERTY_MEASURED: IC50 (nM)

INSERT INTO assay_data (compound, assayed_target, property_measured, unit_of_measure, quantitative_result) VALUES
  ('COc1cccc(NC(=O)NC2N=C(c3ccccc3)c3cccc(C)c3N(C)C2=O)c1 (centres unmarked) [Example 290]', 'Gastrin receptor (gastric glands) (Cavia porcellus)', 'IC50', 'nM', 8.7),
  ('COc1cccc(NC(=O)NC2N=C(c3ccc(C)cc3)c3ccccc3N(C)C2=O)c1 (centres unmarked) [Example 292]', 'Gastrin receptor (gastric glands) (Cavia porcellus)', 'IC50', 'nM', 11.5),
  ('CN1C(=O)[C@H](NC(=O)[C@@H](N)Cc2ccccc2)N=C(c2ccccc2)c2ccccc21 [Example 84b]', 'Gastrin receptor (gastric glands) (Cavia porcellus)', 'IC50', 'nM', 55000),
  ('Cc1ccc2c(c1)N(C)C(=O)C(NC(=O)c1cc3ccccc3[nH]1)N=C2c1ccccc1 (centres unmarked) [Example 294]', 'Gastrin receptor (gastric glands) (Cavia porcellus)', 'IC50', 'nM', 40),
  ('CN1C(=O)C(Cc2cn(C)c3ccccc23)N=C(c2ccccc2)c2ccccc21 (centres unmarked) [Example 200]', 'Gastrin receptor (gastric glands) (Cavia porcellus)', 'IC50', 'nM', 67000),
  ('CCN(CC)C(=O)C(C)N1C(=O)C(NC(=O)OCc2ccccc2)N=C(c2ccccc2)c2ccccc21 (centres unmarked) [Example 244]', 'Gastrin receptor (gastric glands) (Cavia porcellus)', 'IC50', 'nM', 500),
  ('CN1C(=O)[C@@H](NC(=O)c2ccccc2Br)N=C(c2ccccc2F)c2ccccc21 [Example 161]', 'Gastrin receptor (gastric glands) (Cavia porcellus)', 'IC50', 'nM', 19000),
  ('CN1C(=O)[C@@H](NC(=O)C=Cc2ccccc2)N=C(c2ccccc2)c2ccccc21 [Example 192]', 'Gastrin receptor (gastric glands) (Cavia porcellus)', 'IC50', 'nM', 180);

Taken from patent US4820834A.
